target: USP10 (UniProt Q14694); assay: log2 ratio of Biotin-Ahx-Ub-VS probe labelling (fragment/DMSO); higher = less target engagement (more negative = stronger competition), active = hit call of the paper (q ≤ 0.05, log2 ratio ≤ -1); conditions: compound concentration: 200 uM; treatment time: 3 h
Sequence (Q14694 whole entry, the tested form may be a part): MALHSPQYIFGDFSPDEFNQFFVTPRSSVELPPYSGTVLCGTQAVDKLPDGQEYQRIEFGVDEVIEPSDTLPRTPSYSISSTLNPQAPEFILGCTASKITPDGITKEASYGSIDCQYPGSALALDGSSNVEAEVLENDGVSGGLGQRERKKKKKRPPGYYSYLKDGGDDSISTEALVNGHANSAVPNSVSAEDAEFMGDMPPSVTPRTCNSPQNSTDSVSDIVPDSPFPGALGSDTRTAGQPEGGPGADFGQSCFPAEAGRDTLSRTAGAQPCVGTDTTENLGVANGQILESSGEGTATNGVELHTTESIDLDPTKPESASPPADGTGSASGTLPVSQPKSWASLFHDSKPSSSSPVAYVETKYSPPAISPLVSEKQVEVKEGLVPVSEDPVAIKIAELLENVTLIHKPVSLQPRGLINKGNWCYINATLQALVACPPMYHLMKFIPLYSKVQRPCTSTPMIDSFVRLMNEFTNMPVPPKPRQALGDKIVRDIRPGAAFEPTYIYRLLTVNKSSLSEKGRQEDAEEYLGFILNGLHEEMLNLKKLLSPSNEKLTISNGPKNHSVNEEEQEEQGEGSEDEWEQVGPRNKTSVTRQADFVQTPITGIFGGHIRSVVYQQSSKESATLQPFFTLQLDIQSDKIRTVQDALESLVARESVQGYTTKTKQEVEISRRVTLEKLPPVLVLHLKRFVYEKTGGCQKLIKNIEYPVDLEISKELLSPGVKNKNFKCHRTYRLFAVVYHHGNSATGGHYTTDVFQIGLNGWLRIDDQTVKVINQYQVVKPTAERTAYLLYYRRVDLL
ENDPOINT: log2 ratio of Biotin-Ahx-Ub-VS probe labelling

Record excerpt, results attached:
// query log2 ratio of Biotin-Ahx-Ub-VS probe labelling value for entry CC(c1ccccc1)N(C)C(=O)CCl (configuration not stated)
-0.134 (inactive)

Now consider COc1ccc(C2CCCN2C(=O)CCl)c(OC)c1 (configuration not stated) .
-0.166 (inactive)

Now consider Cl.O=C(CCl)N1CCC(n2nc3ccccc3n2)CC1 .
-0.135 (inactive)

Now consider Cl.O=C(CCl)N1CCn2ncc(O)c2C1 .
-0.00467 (inactive)

Now consider Cc1ccc(C)c(NC(=O)CCl)c1 .
-0.39 (inactive)

Now consider Cc1ccccc1OCC(=O)N1CCN(C(=O)CCl)CC1 .
-0.173 (inactive)

# input for lookup
// query log2 ratio of Biotin-Ahx-Ub-VS probe labelling value for entry O=C(CCl)N(Cc1ccsc1)C1CC1
-0.125 (inactive)
